# Tested on: SW-620 colon
# Assay protocol: NCI-60 one-dose screen, 48 h (100 = growth as untreated, 0 = no growth, -100 = all killed)
# Condition summary: 10 µM unless noted
Compounds without any hit were thinned out: in the full panel of roughly 83,000, 20% have a hit.
Observable: growth (%)
The reply should contain only the number, in %.

Task item: Would you mind telling me what growth value was observed for `O=C1/C(=C/c2cccc3c2OCO3)Cc2c(F)cc(Br)cc21` ?
Reply: 114

Task item: Would you mind telling me what growth value was observed for `CC(=O)Nc1ccc(S(=O)(=O)Nc2ccc(-c3ccc4c(c3)NC(=O)/C4=C\c3ccc[nH]3)cc2)cc1` ?
Reply: 114

Task item: Would you mind telling me what growth value was observed for `O=C(N=Nc1c(O)[nH]c2ccc(Br)cc12)c1ccc2nc(-c3ccc(Cl)cc3)[nH]c2c1` ?
Reply: -37.2

Task item: Would you mind telling me what growth value was observed for N#CC1=C(c2ccco2)Nc2c(c(-c3ccccc3)nn2-c2ccccc2)C12C(=O)Nc1ccc(Cl)cc12 (centres undefined) ?
Reply: 15.9

* * *

# Tested on: IGROV1 ovarian
# Assay protocol: NCI-60 one-dose screen, 48 h (100 = growth as untreated, 0 = no growth, -100 = all killed)
# Condition summary: 10 µM unless noted
Compounds without any hit were thinned out: in the full panel of roughly 83,000, 20% have a hit.
Threshold -10%. growth below it: class 1. growth at it or above: class 0.

Task item: Strictly below -10%: is that where growth of `COc1cc(/C=C/C(=O)c2cnn(-c3cc(=O)[nH]c4ccccc34)c2C)cc(OC)c1OC` sits?
Reply: class 0

Task item: Strictly below -10%: is that where growth of `C/C(=N\Nc1ccc(C(=O)O)cc1)c1cnn(-c2cc(=O)[nH]c3ccc(C)cc23)c1C` sits?
Reply: class 0

Task item: Strictly below -10%: is that where growth of `Cc1ccc2c(c1)nc(-c1ccccc1)n2CC(=O)N=Nc1c(O)[nH]c2ccc(Cl)cc12` sits?
Reply: class 1

Task item: Strictly below -10%: is that where growth of `CC(=O)c1ccc2c(N)c(C(=O)Nc3ccc(C(F)(F)F)cc3)sc2n1` sits?
Reply: class 0

Task item: Strictly below -10%: is that where growth of `COc1ccc(NC(=O)Cn2c(/C=C/c3cccc(Br)c3)nc3ccccc3c2=O)cc1` sits?
Reply: class 0

Task item: Strictly below -10%: is that where growth of `N#Cc1c(-c2ccc(F)cc2)nc(SCc2ccccc2)nc1N1CCNCC1` sits?
Reply: class 1

Task item: Strictly below -10%: is that where growth of `O=C1N/C(=N\c2nccs2)S/C1=C\c1ccc([N+](=O)[O-])cc1` sits?
Reply: class 0

Task item: Strictly below -10%: is that where growth of `Cc1ccc(C(C)C)cc1Oc1cccc(-c2c(-c3ccc(C(F)(F)F)cc3)ncn2C2CCNCC2)n1` sits?
Reply: class 1

Task item: Strictly below -10%: is that where growth of `COc1ccc(-c2nc3ccccc3n2CC(=O)N=Nc2c(O)[nH]c3ccc(Br)cc23)cc1` sits?
Reply: class 0

Task item: Strictly below -10%: is that where growth of COc1ccc2c(c1)C(Sc1ccc(Cl)cc1)c1c(nc(N)c(C#N)c1N)O2 (stereo not given) sits?
Reply: class 0

Task item: Strictly below -10%: is that where growth of `O=C(NNC(=O)c1ccc(OCc2nc3ccc(Cl)cc3[nH]2)cc1)Nc1ccc(Cl)c(Cl)c1` sits?
Reply: class 0

Task item: Strictly below -10%: is that where growth of `O=C(Cn1c(/C=C/c2ccc([N+](=O)[O-])cc2)nc2ccccc2c1=O)Nc1ccccc1` sits?
Reply: class 0

Task item: Strictly below -10%: is that where growth of `Nc1nc2cc(-c3ccc4ncnc(NCc5ccccc5)c4c3)ccc2o1` sits?
Reply: class 1

Task item: Strictly below -10%: is that where growth of CC1=C(C(=O)Nc2ccccc2)C(c2ccc3ccccc3c2)n2c(nc3ccccc32)N1 (stereo not given) sits?
Reply: class 0

Task item: Strictly below -10%: is that where growth of `Nc1cc2ccccc2c(=O)n1NC(=O)c1ccccc1` sits?
Reply: class 0

Task item: Strictly below -10%: is that where growth of `Cn1cc(-c2cc(N)n3nc(-c4c[nH]c5ccc(Cl)cc45)cc3n2)c2cc(Br)cnc21` sits?
Reply: class 1

Task item: Strictly below -10%: is that where growth of `CN(C)CCCc1ccc(Nc2cnn(C)c(=O)c2Cl)cc1` sits?
Reply: class 0

Task item: Strictly below -10%: is that where growth of `COc1ccc2[nH]c(O)c(N=Nc3nc(-c4ccccc4)cs3)c2c1` sits?
Reply: class 0

Task item: Strictly below -10%: is that where growth of `C[C@@H]1CN(c2ccc3ncc(C#Cc4cncc(C(=O)Nc5ccc(CN6CCN(C)CC6)c(C(F)(F)F)c5)c4)n3n2)C[C@@H](C)O1` sits?
Reply: class 1

Task item: Strictly below -10%: is that where growth of `O=C(N=Nc1c(O)[nH]c2ccc(Cl)cc12)c1ccc2nc(-c3ccc(Cl)cc3)[nH]c2c1` sits?
Reply: class 1
